Exercise: state measured Plant response rating, Ryegrass, Italian for each of the compounds provided.
System: ryegrass, Italian (Italian ryegrass, Lolium multiflorum)
TEST: Test A postemergence, ryegrass, Italian
Format: in vivo
STATED CONDITIONS: 31 g ai/ha, 0 to 100 scale
One number for each entry.

- SMILES DATA: "CC(=O)Oc1c(Cl)nn(C)c(=O)c1-c1c2ccccc2cc2ccccc12"
  Plant response rating, Ryegrass, Italian: 20
- SMILES DATA: "Cn1nc(Cl)c(O)c(-c2c3ccccc3c(Cl)c3ccccc23)c1=O"
  Plant response rating, Ryegrass, Italian: 50
- SMILES DATA: "Cn1nc(Cl)c(O)c(-c2c3ccccc3cc3ccccc23)c1=O"
  Plant response rating, Ryegrass, Italian: 20
- SMILES DATA: "C1COCCN1.Cn1nc(Cl)c(O)c(-c2c3ccccc3cc3ccccc23)c1=O"
  Plant response rating, Ryegrass, Italian: 10
- SMILES DATA: "Cc1c2ccccc2c(-c2c(O)c(Cl)nn(C)c2=O)c2ccccc12"
  Plant response rating, Ryegrass, Italian: 0

*Q* Name the recorded Plant response rating, Ryegrass, Italian for Cc1nn(C)c(=O)c(-c2c3ccccc3cc3ccccc23)c1O .
*A* 90
